I'd appreciate it if you could supply inhibition values for the items below.
# target-or-system: Glutathione S-transferase omega-1 (Homo sapiens)
# experimental-protocol: inhibitors of recombinant GSTO1, primary screen, counter-screen for RBBP9 inhibitor project, biochemical, fluorescence polarization (AID 1974);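 note: 0% = GSTO1-1 with DMSO and 100% = wells lacking GSTO1-1 enzyme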
# particulars: recombinant GSTO1, activity-based probe fluorescence polarization; at 5.96 µM; active compounds read high
Among all 300,000 compounds or so, about 3,200 (1.1%) were called active. Many of the other results were omitted from the sample, so actives are more common in it than they were.
The answer is to be given in %; state only the numeric part.

stdin: Given the compound Cc1ccc(C(=O)N/N=C/c2sc(=O)n(Cc3cccc(C(=O)O)c3)c2Cl)cc1 , what is its reported inhibition?
stdout: 40.4

stdin: Given the compound Oc1ccc(N=Cc2sc3ccccc3c2Cl)cc1 , what is its reported inhibition?
stdout: 87.7

stdin: Given the compound CN1C(=O)CC(c2ccccc2)C1=O (stereo unspecified) , what is its reported inhibition?
stdout: 7.68

stdin: Given the compound Cc1cccn2c(=O)nc(SCC(=O)NCc3ccccc3Cl)nc12 , what is its reported inhibition?
stdout: 0.44

stdin: Given the compound O=C(N/N=C/c1c(Cl)[nH]c2ccccc12)c1sc2ccccc2c1Cl , what is its reported inhibition?
stdout: -18.9

stdin: Given the compound COC1(C2=NCCN2)COc2ccccc2O1 (stereo unspecified) , what is its reported inhibition?
stdout: 10.3

stdin: Given the compound COc1ccc(N=C(C)c2sc3ccccc3c2O)cc1 , what is its reported inhibition?
stdout: 3.42

stdin: Given the compound O=[N+]([O-])C(=c1ccc2c(c1)N1C3=C(CCCC3)CC3CCCCC31N=2)[N+](=O)[O-] (stereo unspecified) , what is its reported inhibition?
stdout: 35.2

stdin: Given the compound O=C(CCl)Nc1cccc(CP(=O)(c2ccccc2)c2ccccc2)c1 , what is its reported inhibition?
stdout: 87.8

stdin: Given the compound Cc1ccc(/C=N/NC(=O)CN2CCN(Cc3ccccc3)CC2)s1 , what is its reported inhibition?
stdout: -7.48

stdin: Given the compound Oc1c(C=Nc2cccc3nsnc23)ccc2ccccc12 , what is its reported inhibition?
stdout: 64.1
